- System: L1210 leukemia ip in BDF1 mice, survival T/C
- protocol_text: NCI In Vivo Anticancer Drug Screen. Data for tumor model L1210 Leukemia (intraperitoneal) in B6D2F1 (BDF1) mice
- assay_context: endpoint: mean survival time; dose: 25.0 mg/kg/injection; schedule: Q01DX009 (ip); vehicle: saline; higher = longer survival
Toxic doses and inconclusive results are not listed.
outcome_measure: T/C

CC1(C)CC(=O)c2ccccc21 = 101 % of control
CC(C)(C)C1=C[P+](c2ccccc2)(c2ccccc2)C(C(C)(C)C)=C[P+]1(c1ccccc1)c1ccccc1 = 104 % of control
CCC(C)C(CCCN1CCOCC1)(CNC(=O)CN(CC)CC)c1cccc2ccccc12 (centres undefined) = 94 % of control
CCOP(=O)(NN(C)C)OCC = 104 % of control
COC(=O)c1ccc(NCC(C)(C)N)cc1 = 105 % of control
CC1(c2cccs2)C(=O)N(Cl)C(=O)N1Cl (centres undefined) = 110 % of control
Nc1nc(N)c(N=Nc2ccccc2S(=O)(=O)O)c(=O)[nH]1 = 97 % of control
ClC12CCC(Cl)(CC1)C2(Cl)Cl = 95 % of control
CN1CC(COC(=O)CCc2ccc(N(CCCl)CCCl)cc2)C=C2c3cccc4[nH]cc(c34)C[C@H]21 (some centres undefined) = 117 % of control
CN(C)CCCN1CCC2(CC[C@H]3CCCC[C@@H]3C2)CC1 = 101 % of control
Nc1ncnc2c1ncn2CCCCCl = 97 % of control
Cc1nc(NN)c(C(N)=O)nc1C = 98 % of control
COc1ccc(C(=O)NC2CCC2)cc1 = 100 % of control
O=C(OCC1OC(n2cnc3c(=S)nc[nH]c32)C(OC(=O)c2ccccc2)C1OC(=O)c1ccccc1)c1ccccc1 (centres undefined) = 118 % of control

---

- Test system: L1210 leukemia ip in BDF1 mice, survival T/C
- protocol_text: NCI In Vivo Anticancer Drug Screen. Data for tumor model L1210 Leukemia (intraperitoneal) in B6D2F1 (BDF1) mice
- assay_context: endpoint: mean survival time; dose: 100.0 mg/kg/injection; schedule: Q01DX009 (ip); vehicle: Klucel (hydroxypropylcellulose) (HPC); higher = longer survival
Toxic doses and inconclusive results are not listed.
outcome_measure: T/C

NC(=O)CC(NC(=O)OCc1ccccc1)C(=O)O (stereo not given) = 95 % of control
COc1ccc(C=C2C(=O)NC(=O)NC2=O)cc1OC = 96 % of control
O=[N+]([O-])c1cccc(OCCCCOc2ccccc2)c1 = 98 % of control
CNC(=O)Nc1ccc(C(=O)OCC(C)C)cc1 = 104 % of control
O=C(Nc1cc([N+](=O)[O-])ccc1O)c1ccc(Cl)c(Cl)c1 = 104 % of control
CCCCCCCCCCCCNC(=O)Nc1cc(C)ccc1C = 97 % of control
O=C(NCc1cccnc1)c1ccccc1N=Cc1cc(Cl)cc(Cl)c1O = 98 % of control
O=C(c1ccccc1)C1OC1(CBr)c1ccccc1 (stereo not given) = 106 % of control
CC1CCCN(C)C1 (stereo not given) = 100 % of control
O=C(O)c1ccccc1C(=O)c1ccc2c3c(cccc13)CC2 = 104 % of control
Cc1cc(C)c(B2OB(c3c(C)cc(C)cc3C)O2)c(C)c1 = 95 % of control
O=C(Nc1cccc(Cl)c1Cl)Oc1ccc2ccccc2c1 = 100 % of control
O=C(c1ccccc1)C(CBr)C(Br)c1ccccc1 (stereo not given) = 90 % of control
Cc1ccc(C)c(NC(=O)Nc2cccc(O)c2)c1 = 102 % of control
CCCCCOC(=O)CN(CC(=O)OCCCCC)c1ccccc1 = 88 % of control
